Reported IC50 values for a set of compounds
- target_or_system: UniProt P08842
- assay_comment: Inhibition of steroid sulfatase in human JEG3 cell lysates using [3H] E1S as substrate after 1 hr by scintillation spectrometry analysis
- Assay type: cell-free, JEG-3
Return type: number; implicit unit nM.

Worked set:
smiles_input | metric | endpoint_result
NS(=O)(=O)Oc1ccc(C(=O)NC23CC4CC(CC(C4)C2)C3)cc1Cl | IC50 | 25.8
NS(=O)(=O)Oc1ccc(NC(=O)C23CC4CC(CC(C4)C2)C3)cc1 | IC50 | 110
NS(=O)(=O)Oc1ccc(C(=O)NC23CC4CC(CC(C4)C2)C3)cc1Br | IC50 | 74.1

[in] Looking for the measured IC50 of `NS(=O)(=O)Oc1ccc(C(=O)NC23CC4CC(CC(C4)C2)C3)cc1F` , can you help?
[out] 67.7

----------
- target_or_system: UniProt:P08842
- assay_comment: Inhibition of steroid sulfatase in human JEG3 cells using [3H] E1S as substrate incubated for 20 hrs by scintillation spectrometry analysis
- Format: cell-based, JEG-3
metric: pIC50
When answering, recall that pIC50 equals minus log10 of the concentration in mol/L, and write that number alone.

smiles_input | pIC50
NS(=O)(=O)Oc1ccc(C(=O)NC23CC4CC(CC(C4)C2)C3)cc1Cl | 6.82

[in] Form field: pIC50 recorded for `NS(=O)(=O)Oc1ccc(NC(=O)C23CC4CC(CC(C4)C2)C3)cc1` with UniProt:P08842 (enter value)
[out] 7.87

----------
- target_or_system: Steryl-sulfatase (Homo sapiens)
- Sequence (whole entry): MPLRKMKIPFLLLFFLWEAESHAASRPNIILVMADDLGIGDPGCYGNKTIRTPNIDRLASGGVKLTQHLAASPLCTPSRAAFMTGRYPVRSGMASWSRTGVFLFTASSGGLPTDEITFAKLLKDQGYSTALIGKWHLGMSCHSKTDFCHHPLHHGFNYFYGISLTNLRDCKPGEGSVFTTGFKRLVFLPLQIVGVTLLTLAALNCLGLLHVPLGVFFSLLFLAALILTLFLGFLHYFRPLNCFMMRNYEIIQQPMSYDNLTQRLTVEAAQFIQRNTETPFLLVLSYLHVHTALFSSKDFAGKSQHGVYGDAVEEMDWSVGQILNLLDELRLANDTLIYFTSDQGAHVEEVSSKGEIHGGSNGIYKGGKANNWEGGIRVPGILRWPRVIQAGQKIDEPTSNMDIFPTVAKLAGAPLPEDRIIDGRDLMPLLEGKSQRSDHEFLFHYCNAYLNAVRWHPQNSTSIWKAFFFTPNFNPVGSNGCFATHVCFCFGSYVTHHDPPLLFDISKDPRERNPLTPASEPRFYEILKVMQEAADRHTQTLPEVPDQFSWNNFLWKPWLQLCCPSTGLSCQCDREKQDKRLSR
- assay_comment: Inhibition of steroid sulfatase in human JEG3 cell lysates at 10 uM using [3H] E1S as substrate after 1 hr by scintillation spectrometry analysis relative to control
- Type: cell-free
- condition_label: JEG-3
Hi, to clarify the labels: satisfied covers inhibition from 60% upward, not satisfied covers anything below 60%.

smiles_input | category
NS(=O)(=O)Oc1ccc(NC(=O)c2cccnc2)cc1 | not satisfied
NS(=O)(=O)Oc1ccc(NC(=O)C23CC4CC(CC(C4)C2)C3)cc1Br | satisfied
NS(=O)(=O)Oc1ccc(NC(=O)c2ccc3ccccc3c2)cc1 | not satisfied
COc1ccc(C(=O)Nc2ccc(OS(N)(=O)=O)cc2)cc1 | satisfied

[in] Entry `NS(=O)(=O)Oc1ccc(NC(=O)C23CC4CC(CC(C4)C2)C3)cc1Cl` : is its inhibition no less than 60%?
[out] satisfied

[in] Quick check: does `NS(=O)(=O)Oc1ccc(NC(=O)c2ccc(Cl)cc2)cc1` have inhibition greater than or equal to 60%?
[out] not satisfied

[in] Dear colleague, could you confirm whether `NS(=O)(=O)Oc1ccc(NC(=O)C23CC4CC(CC(C4)C2)C3)cc1F` has inhibition at or above 60%?
[out] satisfied

[in] I'd appreciate it if you could say whether `NS(=O)(=O)Oc1ccc(C(=O)NC23CC4CC(CC(C4)C2)C3)cc1Cl` has inhibition at least equal to 60%.
[out] satisfied

[in] Determine whether this compound has inhibition no lower than 60%: `NS(=O)(=O)Oc1ccc(NC(=O)C2CCCCCC2)cc1`
[out] not satisfied
